All values here come from patent US8541588B2.

Tested System: Nav1.7 (or SCN9A) channel; HEK cells stably transfected with hSCN9A (Homo sapiens, UniProt Q15858)
Construct: expressed in transfected cells
Sequence (Q15858 whole entry): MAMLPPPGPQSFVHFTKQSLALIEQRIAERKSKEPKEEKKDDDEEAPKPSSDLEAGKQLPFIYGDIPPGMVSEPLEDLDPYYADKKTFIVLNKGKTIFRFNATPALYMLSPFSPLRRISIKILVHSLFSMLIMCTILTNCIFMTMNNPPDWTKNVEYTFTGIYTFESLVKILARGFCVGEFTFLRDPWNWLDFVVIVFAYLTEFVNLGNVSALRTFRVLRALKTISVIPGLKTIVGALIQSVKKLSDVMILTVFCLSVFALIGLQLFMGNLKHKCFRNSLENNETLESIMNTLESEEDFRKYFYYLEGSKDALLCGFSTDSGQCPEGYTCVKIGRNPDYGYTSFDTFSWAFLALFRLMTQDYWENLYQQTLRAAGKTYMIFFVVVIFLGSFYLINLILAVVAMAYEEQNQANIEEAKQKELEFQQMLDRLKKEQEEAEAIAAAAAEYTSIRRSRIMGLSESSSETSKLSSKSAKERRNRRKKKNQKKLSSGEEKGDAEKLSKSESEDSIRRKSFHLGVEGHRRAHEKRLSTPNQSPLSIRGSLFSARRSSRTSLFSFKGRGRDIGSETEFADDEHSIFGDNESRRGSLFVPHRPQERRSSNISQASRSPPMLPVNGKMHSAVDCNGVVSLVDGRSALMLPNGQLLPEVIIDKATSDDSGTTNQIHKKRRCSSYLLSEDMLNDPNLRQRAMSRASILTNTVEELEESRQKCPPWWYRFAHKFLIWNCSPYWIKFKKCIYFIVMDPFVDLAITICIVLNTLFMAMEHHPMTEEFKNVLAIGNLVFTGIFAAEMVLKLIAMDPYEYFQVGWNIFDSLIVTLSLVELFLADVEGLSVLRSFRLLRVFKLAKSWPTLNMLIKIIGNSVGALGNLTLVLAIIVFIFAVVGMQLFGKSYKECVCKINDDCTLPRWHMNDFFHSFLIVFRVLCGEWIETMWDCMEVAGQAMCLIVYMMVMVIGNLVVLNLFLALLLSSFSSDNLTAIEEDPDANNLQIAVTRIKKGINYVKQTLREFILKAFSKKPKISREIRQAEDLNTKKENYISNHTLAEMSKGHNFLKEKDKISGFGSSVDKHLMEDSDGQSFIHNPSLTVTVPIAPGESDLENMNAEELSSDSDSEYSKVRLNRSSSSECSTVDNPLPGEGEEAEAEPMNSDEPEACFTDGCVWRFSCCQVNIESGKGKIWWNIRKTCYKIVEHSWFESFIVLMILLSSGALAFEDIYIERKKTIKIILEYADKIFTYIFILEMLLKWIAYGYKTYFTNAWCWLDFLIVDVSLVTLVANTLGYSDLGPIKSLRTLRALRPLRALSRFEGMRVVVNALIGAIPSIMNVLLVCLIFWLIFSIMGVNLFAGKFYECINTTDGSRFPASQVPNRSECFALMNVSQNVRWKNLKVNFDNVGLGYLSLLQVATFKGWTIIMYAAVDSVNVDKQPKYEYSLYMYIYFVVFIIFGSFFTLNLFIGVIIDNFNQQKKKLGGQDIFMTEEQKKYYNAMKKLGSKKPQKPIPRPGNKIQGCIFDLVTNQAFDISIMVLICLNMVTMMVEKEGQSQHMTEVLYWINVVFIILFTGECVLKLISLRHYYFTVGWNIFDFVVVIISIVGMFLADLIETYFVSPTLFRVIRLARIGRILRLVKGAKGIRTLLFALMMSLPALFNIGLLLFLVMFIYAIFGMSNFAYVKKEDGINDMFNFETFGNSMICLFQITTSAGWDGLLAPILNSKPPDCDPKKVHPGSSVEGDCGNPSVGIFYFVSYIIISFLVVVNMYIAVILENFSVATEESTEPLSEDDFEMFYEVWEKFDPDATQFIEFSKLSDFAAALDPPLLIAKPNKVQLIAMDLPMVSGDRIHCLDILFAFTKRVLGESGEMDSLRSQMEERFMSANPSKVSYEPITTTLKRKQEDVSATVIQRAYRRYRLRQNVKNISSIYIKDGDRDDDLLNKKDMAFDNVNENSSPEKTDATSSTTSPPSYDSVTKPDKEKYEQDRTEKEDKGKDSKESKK
Protocol Description: Nav1.7 block, PatchXpress 7000 automated whole-cell voltage clamp, estimated IC50 (EIC50)
Format: cell-based
Measurement Parameters: PatchXpress platform; hSCN9A HEK cells held at V1/2 of inactivation; estimated IC50
Okay, here is how we bin by IC50: bin A: < 0.9 µM; bin B: ≥ 0.9 µM and < 3 µM; bin C: ≥ 3 µM

Worked examples follow.
{"Compound": "N#Cc1cc(S(=O)(=O)Nc2nccs2)ccc1Oc1ccc(Cl)cc1-c1ccnn1-c1ccccc1 [Example 171]", "Discrete Label": "bin A"}
{"Compound": "Cn1nccc1-c1cc(F)ccc1Oc1ccc(S(=O)(=O)Nc2nccs2)cc1C#N [Example 169]", "Discrete Label": "bin A"}
{"Compound": "Cn1nccc1-c1cc(Br)ccc1Oc1ccc(S(=O)(=O)Nc2nccs2)cc1F [Example 226]", "Discrete Label": "bin A"}
{"Compound": "Cc1cnc(NS(=O)(=O)c2ccc(Oc3ccccc3-c3ccccc3)c(C#N)c2)s1 [Example 100]", "Discrete Label": "bin C"}
{"Compound": "N#Cc1cc(S(=O)(=O)Nc2ncns2)ccc1Oc1ccccc1Oc1ccc(F)cc1 [Example 77]", "Discrete Label": "bin A"}

Prompt: Category lookup for the compound N#Cc1cc(S(=O)(=O)Nc2ncns2)ccc1Oc1cc(C(F)(F)F)nn1-c1ccc(F)c(F)c1 [Example 59]
Response: bin B

Prompt: # classify by IC50 band: N#Cc1cc(S(=O)(=O)Nc2ncns2)ccc1Oc1ccccc1-c1cc(F)cc(F)c1 [Example 53]
Response: bin C

Prompt: Hello team, could you let me know which band the following compound falls into: N#Cc1cc(S(=O)(=O)Nc2nccs2)ccc1Oc1ccccc1-c1nncn1-c1ccccc1 [Example 181]
Response: bin C

Prompt: Into which category would you place Cn1ccc(-c2c(F)cccc2Oc2ccc(S(=O)(=O)Nc3ncns3)cc2C#N)n1 [Example 85] ?
Response: bin B

Prompt: Category of CC(C)(C)n1nccc1-c1cc(F)ccc1Oc1ccc(S(=O)(=O)Nc2nccs2)cc1F [Example 217] , please.
Response: bin A

Prompt: Given O=S(=O)(Nc1nccs1)c1ccc(Oc2ccccc2-c2ccccn2)c(F)c1 [Example 131] , name the class its IC50 places it in.
Response: bin C

Prompt: Would you mind sorting O=S(=O)(Nc1ncns1)c1ccc(Oc2ccccc2-c2ccccc2)cc1Cl [Example 263] into the appropriate category?
Response: bin B

Prompt: Please classify: Cc1cc(CN2CCCC2)cc(C)c1Oc1ccc(S(=O)(=O)Nc2nccs2)cc1F [Example 123]
Response: bin C

Prompt: Category lookup for the compound Cc1cccc(-c2cccc(OC(C)C)c2)c1Oc1ccc(S(=O)(=O)Nc2ncns2)cc1C#N [Example 32]
Response: bin C
